Reported inhibition at 10 µM by item:
# Test system: HCT-15
# PROCEDURE_DETAILS: NCI-60 one-dose assay
# Type: cell-based
# MEASUREMENT_CONTEXT: Homo sapiens, HCT-15 (Colon Cancer), read-out: Cell Inhibition Percent
Give just the numeric value; % need not be written.

Worked cases, inhibition at 10 µM given:
{"columns": ["INPUT_SMILES", "METRIC", "UNIT_NAME", "TEST_VALUE"],
 "data": [
  ["O=C(NN=Cc1ccc([N+](=O)[O-])cc1)c1ccc2[nH]c(-c3ccc(Cl)cc3)nc2c1", "inhibition at 10 µM", "%", 70.1],
  ["CCNC(=S)NNC(=O)c1ccc2[nH]c(-c3ccc(Cl)cc3)nc2c1", "inhibition at 10 µM", "%", 5.9],
  ["CCn1c(-c2ccc3[nH]c(-c4ccc(Cl)cc4)nc3c2)n[nH]c1=S", "inhibition at 10 µM", "%", 1.62],
  ["O=C(NN=Cc1ccc(Cl)cc1)c1ccc2[nH]c(-c3ccc(Cl)cc3)nc2c1", "inhibition at 10 µM", "%", 95.3],
  ["O=C(NN=Cc1ccc(F)cc1)c1ccc2[nH]c(-c3ccc(Cl)cc3)nc2c1", "inhibition at 10 µM", "%", 33.2],
  ["COc1cc(/C=N/NC(=O)c2ccc3[nH]c(-c4ccc(Cl)cc4)nc3c2)cc(OC)c1OC", "inhibition at 10 µM", "%", 3.98],
  ["O=C(NN=Cc1ccc(Cl)cc1Cl)c1ccc2[nH]c(-c3ccc(Cl)cc3)nc2c1", "inhibition at 10 µM", "%", 0],
  ["COc1ccc(C=NNC(=O)c2ccc3[nH]c(-c4ccc(Cl)cc4)nc3c2)cc1", "inhibition at 10 µM", "%", 42.5]
]}

Qu. Dear colleague, please send me the reported inhibition at 10 µM for CN(C)c1ccc(C=NNC(=O)c2ccc3[nH]c(-c4ccc(Cl)cc4)nc3c2)cc1 when you can.
Ans. 0

Qu. Assign inhibition at 10 µM to the following record: O=C(N/N=C/c1ccc(O)cc1)c1ccc2[nH]c(-c3ccc(Cl)cc3)nc2c1
Ans. 0

Qu. Tell us which inhibition at 10 µM value is on record for O=C(NN=Cc1ccccc1)c1ccc2[nH]c(-c3ccc(Cl)cc3)nc2c1
Ans. 4.81
